Biological target: GDP-bound KRAS wild-type protein (Homo sapiens, UniProt P01116)
Sequence (P01116 whole entry): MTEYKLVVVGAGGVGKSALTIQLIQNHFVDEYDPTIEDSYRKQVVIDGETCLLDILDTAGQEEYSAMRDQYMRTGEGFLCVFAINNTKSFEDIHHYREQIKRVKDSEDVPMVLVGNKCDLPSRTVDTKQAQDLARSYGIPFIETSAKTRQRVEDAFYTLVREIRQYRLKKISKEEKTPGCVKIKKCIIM
Experiment: Binding to KRAS by surface plasmon resonance (SPR), Single Cycle Kinetics
Conditions: SPR, Single Cycle Kinetics, GDP-bound KRAS wild-type protein; read-out: KRAS KD
MEASURE_NAME: Kd (nM)
Give the value, in units of nM, as a plain number.

In: I have this compound here, `CCOC[C@H]1C(=O)N[C@@H]([C@@H](C)CC)C(=O)N(C)CC(=O)N(C)[C@H]2C/C=C\CCN(C2=O)[C@@H](CC2CCC(F)(F)CC2)C(=O)N(C)CC(=O)N[C@@H](CCc2ccc(C(F)(F)F)c(Cl)c2)C(=O)N2C[C@H](OCC)C[C@H]2C(=O)NC2(CC(C)(C)C2)C(=O)N(C)[C@@H](C(CC)CC)C(=O)N(C)[C@H](C(=O)N(C)C)CC(=O)N1C` , and I need its recorded Kd.
Out: 0.71

In: // next record `CCCOC[C@H]1C(=O)N[C@@H]([C@@H](C)CC)C(=O)N2CCC[C@H]2C(=O)N(C)[C@H]2C/C=C\CCN(C2=O)[C@@H](Cc2ccc(C)cc2)C(=O)N(C)CC(=O)N[C@@H](CCc2ccc(C(F)(F)F)c(OC)c2)C(=O)N2C[C@@H](C)C[C@H]2C(=O)NC2(CC(C)(C)C2)C(=O)N(C)[C@@H](C2CCCC2)C(=O)N(C)[C@H](C(=O)N(C)CC)CC(=O)N1C`
Out: 4.5

In: Another: `CCOC[C@H]1C(=O)N[C@@H]([C@@H](C)OCC)C(=O)N2CCC[C@H]2C(=O)N(C)[C@H]2C/C=C\CCN(C2=O)[C@@H](Cc2ccc(C)cc2)C(=O)N(C)CC(=O)N[C@@H](CCc2ccc(C(F)(F)F)c(OC)c2)C(=O)N2C[C@@H](C)C[C@H]2C(=O)NC2(CC(C)(C)C2)C(=O)N(C)[C@@H](C2CCCC2)C(=O)N(C)[C@H](C(=O)N(C)CC)CC(=O)N1C`
Out: 2.1

In: Also need `CCO[C@@H]1C[C@H]2C(=O)NC3(CCC3)C(=O)N(C)[C@@H](C3CCCC3)C(=O)N(CC)[C@H](C(=O)N3CCOCC3)CC(=O)N(C)[C@@H](Cc3ccccc3)C(=O)N[C@@H]([C@@H](C)CC)C(=O)N(C)CC(=O)N(C)[C@H]3CCCCCN(C3=O)[C@@H](Cc3ccc(C(F)(F)F)cc3)C(=O)N(C)CC(=O)N[C@@H](CCc3cc(F)c(C(F)(F)F)c(F)c3)C(=O)N2C1` , thanks.
Out: 6

In: Then what about the compound `CCO[C@@H]1C[C@H]2C(=O)NC3(CCC3)C(=O)N(C)[C@@H](CC(F)F)C(=O)N(C)[C@H](C(=O)N3CCOCC3)CC(=O)N(C)[C@@H](CC(C)C)C(=O)N[C@@H]([C@@H](C)CC)C(=O)N(C)CC(=O)N(C)[C@H]3CCCCN(C3=O)[C@@H](Cc3ccc(C(F)(F)F)cc3)C(=O)N(C)CC(=O)N[C@@H](CCc3cc(F)c(C(F)(F)F)c(F)c3)C(=O)N2C1` ?
Out: 0.4

In: `CCO[C@@H]1C[C@H]2C(=O)NC3(CC(C)(C)C3)C(=O)N(C)[C@@H](C3CCCC3)C(=O)N(C)[C@H](C(=O)N(C)C)CC(=O)N(C)[C@@H](C(C)C)C(=O)N[C@@H]([C@@H](C)CC)C(=O)N(C)CC(=O)N(C)[C@H]3C/C=C\CCN(C3=O)[C@@H](Cc3ccc(C(F)(F)F)cc3)C(=O)N(C)CC(=O)N[C@@H](CCc3ccc(C(F)(F)F)c(OC)c3)C(=O)N2C1` ?
Out: 0.087

---

Test system: human lung cancer strain NCI-H441;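 note: cell proliferation inhibition after four days measured by CellTiter-Glo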
MEASURE_NAME: pIC50
# pIC50: negative log10 of molar concentration; output just the value

Guide cases for pIC50, answers given:
1. CCO[C@@H]1C[C@H]2C(=O)NC3(CCC3)C(=O)N(C)[C@@H](C3CCCC3)C(=O)N(C)[C@H](C(=O)N3CCOCC3)CC(=O)N(C)[C@@H](CC3CCCC3)C(=O)N[C@@H]([C@@H](C)CC)C(=O)N(C)CC(=O)N(C)[C@H]3C/C=C\CCN(C3=O)[C@@H](Cc3ccc(C)cc3)C(=O)N(C)CC(=O)N[C@@H](CCc3cc(F)c(C(F)(F)F)c(F)c3)C(=O)N2C1 [PP1394]
7.60
2. CCC[C@H]1C(=O)N[C@@H](CC(C)C)C(=O)N(C2CC2)CC(=O)N(C)[C@H]2C/C=C\CCN(C2=O)[C@@H](Cc2ccc(C)cc2)C(=O)N(C)CC(=O)N[C@@H](CCc2ccc(C(F)(F)F)c(OC)c2)C(=O)N2C[C@H](OCC)C[C@H]2C(=O)NC2(CC(C)(C)C2)C(=O)N(C)[C@@H](C2CCCC2)C(=O)N(C)[C@H](C(=O)N(C)C)CC(=O)N1C [PP2510]
6.74
3. CCO[C@@H]1C[C@H]2C(=O)NC3(CC(C)(C)C3)C(=O)N(C)[C@@H](C3CCCC3)C(=O)N(C)[C@H](C(=O)N(CC)CC)CC(=O)N(C)[C@@H](COC)C(=O)N[C@@H]([C@@H](C)CC)C(=O)N(C)CC(=O)N(C)[C@H]3C/C=C\CCN(C3=O)[C@@H](Cc3ccc(C)cc3)C(=O)N(C)CC(=O)N[C@@H](CCc3cc(F)c(C(F)(F)F)c(F)c3)C(=O)N2C1 [PP2403]
8.14
4. CC[C@H](C)[C@@H]1NC(=O)[C@H](COC)N(C)C(=O)C[C@@H](C(=O)N(CC)CC)N(C)C(=O)[C@H](C2CCCC2)N(C)C(=O)C2(CC(C)(C)C2)NC(=O)[C@@H]2C[C@H](C)CN2C(=O)[C@H](CCc2ccc(C(F)(F)F)c(OC)c2)NC(=O)CN(C)C(=O)[C@H](Cc2ccc(C)cc2)N2CC/C=C\C[C@@H](C2=O)N(C)C(=O)CN(C)C1=O [PP2441]
7.64
5. CC[C@H](C)[C@@H]1NC(=O)[C@H](CC2CCC2)N(C)C(=O)C[C@@H](C(=O)N(C)C)N(C)C(=O)[C@H](C2CCCC2)N(C)C(=O)C2(CCCC2)NC(=O)[C@@H]2CCCN2C(=O)[C@H](CCc2ccc(C(F)(F)F)c(Cl)c2)NC(=O)CN(C)C(=O)[C@H](Cc2ccc(C(F)(F)F)cc2)N2C[C@H](C)CC[C@@H](C2=O)N(C)C(=O)CN(C)C1=O [PP1342]
8.30

In: Entry CCO[C@@H]1C[C@H]2C(=O)NC3(CCC3)C(=O)N(C)[C@@H](C3CCCC3)C(=O)N(C)[C@H](C(=O)N3CCOCC3)CC(=O)N(C)C(C)(C)C(=O)N[C@@H]([C@@H](C)CC)C(=O)N(C)CC(=O)N(C)[C@H]3CCCCN(C3=O)[C@@H](Cc3ccc(C(F)(F)F)cc3)C(=O)N(C)CC(=O)N[C@@H](CCc3cc(F)c(C(F)(F)F)c(F)c3)C(=O)N2C1 [PP0722] : reported pIC50 = ?
Out: 5.59

---

Target: GDP-bound KRAS wild-type protein (Homo sapiens, UniProt P01116)
Assay: Binding to KRAS by surface plasmon resonance (SPR), Single Cycle Kinetics
Conditions: SPR, Single Cycle Kinetics, 1:1 binding model; GDP-bound KRAS wild-type protein; read-out: KRAS KD
Catalogue of Kd readings, one per entry.

1) CCCC[C@H]1C(=O)N[C@@H]([C@@H](C)CC)C(=O)N(C)CC(=O)N(C)[C@H]2C/C=C\CCN(C2=O)[C@@H](Cc2ccc(C(F)(F)F)cc2)C(=O)N(C)CC(=O)N[C@@H](CCc2cc(F)c(C(F)(F)F)c(F)c2)C(=O)N2C[C@H](OCC)C[C@H]2C(=O)NC2(CCC2)C(=O)N(C)[C@@H](C2CCCC2)C(=O)N(C)[C@H](C(=O)N2CCCC2)CC(=O)N1C
0.14 nM

# next compound below
In: Could you tell me which Kd is on file for `CCO[C@@H]1C[C@H]2C(=O)NC3(CCC3)C(=O)N(C)[C@@H](C(CC)CC)C(=O)N(C)[C@H](C(=O)N(C)C)CC(=O)N(C)[C@@H](C)C(=O)N[C@@H]([C@@H](C)CC)C(=O)N(C)CC(=O)N(C)[C@H]3C/C=C\CCN(C3=O)[C@@H](Cc3ccc(C(F)(F)F)cc3)C(=O)N(C)CC(=O)N[C@@H](CCc3ccc(Cl)c(Cl)c3)C(=O)N2C1` ?
Out: 0.34 nM
